Target: T1, cyno EpCAM (recombinant, ELISA antigen) (cynomolgus monkey)
T1 construct: extracellular domain; also called cynomolgus EpCAM extracellular domain
T1 sequence (Q1WER1 24-265): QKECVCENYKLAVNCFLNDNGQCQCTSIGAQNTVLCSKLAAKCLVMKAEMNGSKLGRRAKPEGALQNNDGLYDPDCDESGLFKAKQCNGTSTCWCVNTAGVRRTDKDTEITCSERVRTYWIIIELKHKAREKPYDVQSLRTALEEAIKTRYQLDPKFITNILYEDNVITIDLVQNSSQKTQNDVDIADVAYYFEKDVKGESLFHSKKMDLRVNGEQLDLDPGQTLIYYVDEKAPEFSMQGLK
Experiment: ELISA of MMAE conjugates, cyno EpCAM, pH 7.4
Property: EC50 (µg/mL)
Quick note: give the figure in µg/mL, leave out the unit.

Record request: EC50 value, item BA-105.4-01-02 8316-vcMMAE (antibody, V domains shown, antibody conjugated to vcMMAE; chain and residues of attachment not stated) VH: EVQLVQSGAEVKKPGESLRISCKGSGYTFTSYWMHWIRQSPSRGLEWLGYIRPSTGYTEYNQKFKDRVTISADKSISTAYLQWSSLKASDTAMYYCGRGDNWVGFANWGQGTLVTVSS VL: EIVLTQSPDFQSVTPKEKVTITCSASSSISYMHWYQQKPGKAPKLLIYSTSNLASGVPDRFSGSGSGTDFTLKISRVEAEDVGVYYCHQWSTYETFGQGTKVEIK
0.257

Numbers sourced from patent US20260053904A1.
